# Tested on: SDMA in human colon cancer cell line HCT116
# Method: Cell symmetric dimethylarginine (SDMA) test, In-cell Western, HCT116 (MTAP wild-type)
# Format: cell-based
# Run Parameters: Homo sapiens, HCT-116, 96 h, IC50 score class, read-out: Cell 96 h SDMA Inhibition (HCT116-MTAP+/+) (score)
Measure Name: IC50

• Cn1cc2c(n1)c(=O)n(-c1cccnc1)c1cc(Cl)c(F)cc21 [Compound B139] = > 3 µM

Look at this compound and give its reported IC50. Cn1cc2c(n1)c(=O)n(-c1cccnc1C#N)c1nc(C(F)(F)F)ccc21 [Compound B207] 0.2 to 1 µM

Queued: O=c1c2n[nH]cc2c2cc(F)c(Cl)cc2n1-c1cccnc1C1CC1 [Compound B425] > 3 µM

And for Cc1ncccc1-n1c(=O)c2nn(C)c(C)c2c2ccc(C(F)(F)F)nc21 [Compound B189] ? 0.2 to 1 µM
